target: T1, P47 peptide on HLA-A*02:01 (human); experiment: cytokine release
T1 peptide: RISDIRLFIV
REPORTED_ENDPOINT: binding result

BINDER | REPORTED_ENDPOINT | RECORDED_RESULT
SIG35α / TRBV27 Cl.413 (TCR) alpha TRAV12-2 J35 CDR3: CAVSIGFGNVL beta TRBV27 TRBJ1-4 CDR3: CASSVFGGDMGEKLFF | binding result | no recognition
SIG35α / TRBV27 Cl.788 (TCR) alpha TRAV12-2 J35 CDR3: CAVSIGFGNVL beta TRBV27 TRBJ2-7 CDR3: CASGPSYEQYF | binding result | no recognition
SIG35α / TRBV27 Cl.1086 (TCR) alpha TRAV12-2 J35 CDR3: CAVSIGFGNVL beta TRBV27 TRBJ1-2 CDR3: CASSLHGPGGYTF | binding result | no recognition

src = paper PMC4369446
